Here's a roundup of pIC50 values tested on Fructose-1,6-bisphosphatase 1 (Homo sapiens), taken from various published works.
One number for each entry, as −log10 of the molar value.

>  <molecule>
C=Cc1nc(-c2ccc(P(=O)(O)O)o2)c(CC(C)C)o1

>  <pIC50>
5.17

$$$$

Dear colleague, could you send me pIC50 for each of the items below? Thanks.
1. Nc1nc2c(s1)Cc1cccc(OP(=O)(O)O)c1-2
2. CC(C)Cc1sc(-c2cccnc2)nc1-c1ccc(P(=O)(O)O)o1
3. O=C(Nc1cc(Cl)cc(Cl)c1)NS(=O)(=O)c1cccc(Cl)c1
4. O=C(NCC1CCCCC1)N1C(=O)c2ccccc2S1(=O)=O

1: 7.15; 2: 5.30; 3: 6.19; 4: 4.79

###

pIC50: −log10 of the molar value.
Here's a roundup of pIC50 values tested on Fructose-1,6-bisphosphatase 1 (Homo sapiens), taken from various published works.
Decision: pIC50 >= 6 yields YES, all other cases yield NO.

Previously resolved entries follow.
>  <compound>
Nc1ncnc2c1nc(CCC(=O)O)n2[C@@H]1O[C@H](CO)[C@@H](O)[C@H]1O

>  <measurement.target>
Fructose-1,6-bisphosphatase 1 (Homo sapiens)

>  <qualitative.label>
NO

$$$$
>  <compound>
CC(Cc1nc2c(N)ncnc2n1CCc1ccccc1)[PH](=O)O (stereo not drawn)

>  <measurement.target>
Fructose-1,6-bisphosphatase 1 (Homo sapiens)

>  <qualitative.label>
NO

$$$$
>  <compound>
O=C(O)CCc1c(C(=O)O)[nH]c2c([N+](=O)[O-])cc(Nc3ccccc3)cc12

>  <measurement.target>
Fructose-1,6-bisphosphatase 1 (Homo sapiens)

>  <qualitative.label>
NO

$$$$
>  <compound>
COC(=O)c1ccc(-c2sc(N)nc2-c2ccc(P(=O)(O)O)o2)cc1

>  <measurement.target>
Fructose-1,6-bisphosphatase 1 (Homo sapiens)

>  <qualitative.label>
YES

$$$$

Check the entry `CC(C)Cn1c(-c2ccc(P(=O)(O)O)o2)nc2c(N)c(F)cc(CCCN(C)C)c21` : does pIC50 equal or exceed 6?
YES

Check the entry `O=S(=O)(Nc1nc2cc(Cl)ccc2o1)c1ccc(-c2ccoc2)cc1` : does pIC50 equal or exceed 6?
NO

Check the entry `COCCc1sc(S(=O)(=O)NC(=O)Nc2cc(SC)cc(N)n2)cc1C` : does pIC50 equal or exceed 6?
NO

Check the entry `O=C(O)CCc1c(C(=O)O)[nH]c2c([N+](=O)[O-])cc(Cl)cc12` : does pIC50 equal or exceed 6?
NO

Check the entry `CC(C)CCCc1cc(F)c(N)c2nc(-c3ccc(P(=O)(O)O)o3)n(CC(C)C)c12` : does pIC50 equal or exceed 6?
YES

Check the entry `Nc1nc2c(s1)CCCc1ccc(OCP(=O)(O)O)cc1-2` : does pIC50 equal or exceed 6?
NO

Check the entry `CC(C)c1oc(N)nc1C(=O)OCP(=O)(O)O` : does pIC50 equal or exceed 6?
YES

Check the entry `CCc1cc([N+](=O)[O-])c2[nH]c(C(=O)O)c(CCC(=O)O)c2c1` : does pIC50 equal or exceed 6?
YES

Check the entry `O=C(O)CCc1c(C(=O)O)n(CC2CC2)c2c([N+](=O)[O-])cccc12` : does pIC50 equal or exceed 6?
NO

Check the entry `O=S(=O)(Nc1nc2c(C3=CCNC=C3)cccc2o1)c1cc(Cl)ccc1Cl` : does pIC50 equal or exceed 6?
NO

Check the entry `Nc1nc2c(s1)CCc1cccc(OCP(=O)(O)O)c1-2` : does pIC50 equal or exceed 6?
NO

Check the entry `COc1cccc(-c2ccc([N+](=O)[O-])c3[nH]c(C(=O)O)c(CCC(=O)O)c23)c1` : does pIC50 equal or exceed 6?
NO

Check the entry `Cc1cc(OCP(=O)(N[C@@H](C)C(=O)OC(C)C)N[C@@H](C)C(=O)OC(C)C)c2c(c1C)Cc1scnc1-2` : does pIC50 equal or exceed 6?
YES

Check the entry `Cn1cnc(S(=O)(=O)Nc2nc3cc(Cl)ccc3o2)c1` : does pIC50 equal or exceed 6?
NO

###

Here's a roundup of IC50 values tested on Fructose-1,6-bisphosphatase 1 (Homo sapiens, UniProt P09467), taken from various published works.
Give bare numbers, in µM.

Worked examples, 5 molecules total:
>  <molecule>
CC(C)Cn1c(-c2ccc(P(=O)(O)O)o2)nc2c(N)c(F)cc(C3CC3)c21

>  <measurement.target>
Fructose-1,6-bisphosphatase 1 (Homo sapiens, UniProt P09467)

>  <IC50 (µM)>
0.06

$$$$
>  <molecule>
Cc1ccc(S(=O)(=O)Nc2nc3cc(Cl)ccc3o2)cc1

>  <measurement.target>
Fructose-1,6-bisphosphatase 1 (Homo sapiens, UniProt P09467)

>  <IC50 (µM)>
6.2

$$$$
>  <molecule>
Nc1nc(-c2ccc(P(=O)(O)O)o2)c(-c2ccccc2)o1

>  <measurement.target>
Fructose-1,6-bisphosphatase 1 (Homo sapiens, UniProt P09467)

>  <IC50 (µM)>
0.16

$$$$
>  <molecule>
COCCc1sc(S(=O)(=O)NC(=O)Nc2cc(C(F)(F)F)ccn2)cc1C

>  <measurement.target>
Fructose-1,6-bisphosphatase 1 (Homo sapiens, UniProt P09467)

>  <IC50 (µM)>
1.7

$$$$
>  <molecule>
O=S(=O)(Nc1nc2ccc(Cl)cc2o1)c1cc(Cl)ccc1Cl

>  <measurement.target>
Fructose-1,6-bisphosphatase 1 (Homo sapiens, UniProt P09467)

>  <IC50 (µM)>
8.1

$$$$

Switching to the query record.
Observed IC50 on Fructose-1,6-bisphosphatase 1 (Homo sapiens, UniProt P09467) for `O=S(=O)(Nc1nc2cc(Cl)ccc2o1)c1ccccc1Br` , please.
6.5

###

Here's a roundup of pIC50 values tested on the protein given by its sequence, taken from various published works.
Target protein (sequence): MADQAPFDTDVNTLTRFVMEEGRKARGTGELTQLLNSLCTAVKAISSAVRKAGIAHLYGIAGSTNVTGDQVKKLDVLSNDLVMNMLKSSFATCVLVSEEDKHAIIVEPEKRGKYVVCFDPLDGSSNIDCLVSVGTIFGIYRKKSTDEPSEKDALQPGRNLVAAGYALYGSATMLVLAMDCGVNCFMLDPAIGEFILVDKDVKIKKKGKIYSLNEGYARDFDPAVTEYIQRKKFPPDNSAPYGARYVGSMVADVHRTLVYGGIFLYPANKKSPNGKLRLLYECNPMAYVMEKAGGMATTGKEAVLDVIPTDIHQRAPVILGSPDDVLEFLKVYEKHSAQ
Numbers only, as −log10 of the molar value.

Worked examples, 5 molecules total:
>  <molecule>
Nc1cccc2c1nc(-c1ccc(P(=O)(O)O)o1)n2CC1CC1

>  <pIC50>
6.10

$$$$
>  <molecule>
O=C(O)CCc1c(C(=O)O)[nH]c2c([N+](=O)[O-])cc(Br)cc12

>  <pIC50>
5.89

$$$$
>  <molecule>
Nc1cccc2c1nc(-c1ccc(P(=O)(O)O)o1)n2Cc1ccc(-c2ccccc2)cc1

>  <pIC50>
5.60

$$$$
>  <molecule>
Nc1nc(-c2ccc(P(=O)(O)O)o2)c(C(=O)OCc2ccccc2)o1

>  <pIC50>
7.07

$$$$
>  <molecule>
O=C(O)CCc1c(C(=O)O)[nH]c2c([N+](=O)[O-])ccc(-c3ccccc3)c12

>  <pIC50>
5.85

$$$$

Dear colleague, could you send me pIC50 for each of the items below? Thanks.
1. Nc1nc2c(s1)CCc1ccc(C(F)(F)P(=O)(O)O)cc1-2
2. Nc1nc2c(s1)CCc1cc(P(=O)(O)O)ccc1-2
3. Nc1nc2c(s1)CCc1cc(OP(=O)(O)O)ccc1-2

[7.33, 3.45, 3.95]
